test-target: UniProt P07900
Entries annotated with measured IC50
Entry rule: numbers only, all in nM.

Consider the reported IC50 for these compounds:
Cn1cc(-c2cn(-c3cccc4c(-c5ccc(C(N)=O)cc5N)nc(C(F)(F)F)nc34)cn2)cn1 : 210
Cn1cc(-c2cn(-c3cccc4c(-c5ccc(C(N)=O)c(F)c5)cc(C(F)(F)F)nc34)cn2)cn1 : 210
COCCNc1cc(-c2nccc3c(-n4cnc(-c5cnn(C)c5)c4)cccc23)ccc1C(N)=O : 210

Return value of IC50 for input CC(C)c1cc(-c2ccc(C(N)=O)c(NC(C)(C)C)c2)c2cccc(-n3cnc(-c4cnn(C)c4)c3)c2n1 , no commentary. 500

Answer with the recorded IC50 for the compound listed here: CCNc1cc(-c2nc(C)cc3c(-n4cnc(-c5cnn(C)c5)c4)cccc23)ccc1C(N)=O 150

Answer with the recorded IC50 for the compound listed here: Cn1cc(-c2cn(-c3cccc4c(-c5ccc(C(N)=O)c(N)c5)cc(C(F)(F)F)nc34)cn2)cn1 150

State its IC50 for this compound: CC(C)Nc1cc(-c2cc(C(F)(F)F)nc3c(-n4cnc(-c5cnn(C)c5)c4)cccc23)ccc1C(N)=O 170

Provide IC50 value for the following compound: Cc1cc2c(-n3cnc(-c4cnn(C)c4)c3)cccc2c(-c2ccc(C(N)=O)cc2N)n1 440
